Each recorded value in this set is attributed to BindingDB's records for doi:10.1016/j.ejmech.2021.113474.

# Tested on: Hypoxia-inducible factor 1-alpha (Homo sapiens)
# Experiment: Inhibition of hypoxia-induced HIF1alpha transcriptional activity in human Hep3B cells co-transfected with luciferase reporter plasmid containing six copies of HREs and pRL-CMV vector assessed as reduction in luciferase activity incubated for 24 hrs under hypoxic condition by HRE-dependent dual luciferase reporter gene assay
Assay endpoint: IC50

### Prompt Recall the recorded IC50 for CC1=C(O)C(=O)C=C2C1=CC=C1[C@@]2(C)CC[C@@]2(C)[C@@H]3C[C@](C)(C(=O)OCC(=O)Nc4ccnc5ccccc45)CC[C@]3(C)CC[C@]12C with Hypoxia-inducible factor 1-alpha (Homo sapiens) and state it.
### Response 0.49 µM

### Prompt Recall the recorded IC50 for CC1=C(O)C(=O)C=C2C1=CC=C1[C@@]2(C)CC[C@@]2(C)[C@@H]3C[C@](C)(C(=O)OCCOc4cc(=O)oc5ccccc45)CC[C@]3(C)CC[C@]12C with Hypoxia-inducible factor 1-alpha (Homo sapiens) and state it.
### Response 0.15 µM

### Prompt Recall the recorded IC50 for CC1=C(O)C(=O)C=C2C1=CC=C1[C@@]2(C)CC[C@@]2(C)[C@@H]3C[C@](C)(C(=O)OCC(=O)Nc4ccc(F)cn4)CC[C@]3(C)CC[C@]12C with Hypoxia-inducible factor 1-alpha (Homo sapiens) and state it.
### Response 0.25 µM

### Prompt Recall the recorded IC50 for CC1=C(O)C(=O)C=C2C1=CC=C1[C@@]2(C)CC[C@@]2(C)[C@@H]3C[C@](C)(C(=O)OCCOc4ccc5cccnc5c4)CC[C@]3(C)CC[C@]12C with Hypoxia-inducible factor 1-alpha (Homo sapiens) and state it.
### Response 0.17 µM

### Prompt Recall the recorded IC50 for COc1ccc(-n2cc(CNC(=O)COC(=O)[C@]3(C)CC[C@]4(C)CC[C@]5(C)C6=CC=C7C(=CC(=O)C(O)=C7C)[C@]6(C)CC[C@@]5(C)[C@@H]4C3)nn2)cc1 with Hypoxia-inducible factor 1-alpha (Homo sapiens) and state it.
### Response > 30 µM

### Prompt Recall the recorded IC50 for CC1=C(O)C(=O)C=C2C1=CC=C1[C@@]2(C)CC[C@@]2(C)[C@@H]3C[C@](C)(C(=O)OCC(=O)NCc4cn(-c5ccc(Cl)cc5)nn4)CC[C@]3(C)CC[C@]12C with Hypoxia-inducible factor 1-alpha (Homo sapiens) and state it.
### Response > 30 µM

### Prompt Recall the recorded IC50 for CC1=C(O)C(=O)C=C2C1=CC=C1[C@@]2(C)CC[C@@]2(C)[C@@H]3C[C@](C)(C(=O)OCC(=O)NCc4cn(-c5ccc(C)cc5)nn4)CC[C@]3(C)CC[C@]12C with Hypoxia-inducible factor 1-alpha (Homo sapiens) and state it.
### Response > 30 µM

### Prompt Recall the recorded IC50 for CCOP(=O)(OCC)C(NC(=O)COC(=O)[C@]1(C)CC[C@]2(C)CC[C@]3(C)C4=CC=C5C(=CC(=O)C(O)=C5C)[C@]4(C)CC[C@@]3(C)[C@@H]2C1)c1ccc(C)cc1 (some centres not stated) with Hypoxia-inducible factor 1-alpha (Homo sapiens) and state it.
### Response > 30 µM

### Prompt Recall the recorded IC50 for CC1=C(O)C(=O)C=C2C1=CC=C1[C@@]2(C)CC[C@@]2(C)[C@@H]3C[C@](C)(C(=O)OCC(=O)Nc4ccc5ncccc5c4)CC[C@]3(C)CC[C@]12C with Hypoxia-inducible factor 1-alpha (Homo sapiens) and state it.
### Response 0.24 µM

### Prompt Recall the recorded IC50 for CC1=C(O)C(=O)C=C2C1=CC=C1[C@@]2(C)CC[C@@]2(C)[C@@H]3C[C@](C)(C(=O)OCC(=O)Nc4ccc(F)nc4)CC[C@]3(C)CC[C@]12C with Hypoxia-inducible factor 1-alpha (Homo sapiens) and state it.
### Response 0.16 µM

### Prompt Recall the recorded IC50 for C=c1c(O)c(O)cc2c1=CC=C1[C@@]2(C)CC[C@@]2(C)[C@@H]3C[C@](C)(C(=O)O)CC[C@]3(C)CC[C@]12C with Hypoxia-inducible factor 1-alpha (Homo sapiens) and state it.
### Response 0.25 µM

### Prompt Recall the recorded IC50 for CC1=C(O)C(=O)C=C2C1=CC=C1[C@@]2(C)CC[C@@]2(C)[C@@H]3C[C@](C)(C(=O)OCC(=O)Nc4cnc5ccccc5c4)CC[C@]3(C)CC[C@]12C with Hypoxia-inducible factor 1-alpha (Homo sapiens) and state it.
### Response 0.09 µM

### Prompt Recall the recorded IC50 for CC1=C(O)C(=O)C=C2C1=CC=C1[C@@]2(C)CC[C@@]2(C)[C@@H]3C[C@](C)(C(=O)OCC(=O)NCc4cn(-c5ccccc5)nn4)CC[C@]3(C)CC[C@]12C with Hypoxia-inducible factor 1-alpha (Homo sapiens) and state it.
### Response 0.6 µM

### Prompt Recall the recorded IC50 for CCOP(=O)(OCC)C(NC(=O)COC(=O)[C@]1(C)CC[C@]2(C)CC[C@]3(C)C4=CC=C5C(=CC(=O)C(O)=C5C)[C@]4(C)CC[C@@]3(C)[C@@H]2C1)c1ccccc1 (some centres not stated) with Hypoxia-inducible factor 1-alpha (Homo sapiens) and state it.
### Response 0.24 µM

### Prompt Recall the recorded IC50 for CC1=C(O)C(=O)C=C2C1=CC=C1[C@@]2(C)CC[C@@]2(C)[C@@H]3C[C@](C)(C(=O)OCC(=O)Nc4cc(C)on4)CC[C@]3(C)CC[C@]12C with Hypoxia-inducible factor 1-alpha (Homo sapiens) and state it.
### Response 0.07 µM

### Prompt Recall the recorded IC50 for CC1=C(O)C(=O)C=C2C1=CC=C1[C@@]2(C)CC[C@@]2(C)[C@@H]3C[C@](C)(C(=O)OCCOc4ccc5ccc(=O)oc5c4)CC[C@]3(C)CC[C@]12C with Hypoxia-inducible factor 1-alpha (Homo sapiens) and state it.
### Response 0.08 µM

### Prompt Recall the recorded IC50 for CC1=C(O)C(=O)C=C2C1=CC=C1[C@@]2(C)CC[C@@]2(C)[C@@H]3C[C@](C)(C(=O)OCCOc4cccc5ncccc45)CC[C@]3(C)CC[C@]12C with Hypoxia-inducible factor 1-alpha (Homo sapiens) and state it.
### Response > 30 µM

### Prompt Recall the recorded IC50 for CCOP(=O)(OCC)C(NC(=O)COC(=O)[C@]1(C)CC[C@]2(C)CC[C@]3(C)C4=CC=C5C(=CC(=O)C(O)=C5C)[C@]4(C)CC[C@@]3(C)[C@@H]2C1)c1ccc(OC)cc1 (some centres not stated) with Hypoxia-inducible factor 1-alpha (Homo sapiens) and state it.
### Response 0.16 µM

### Prompt Recall the recorded IC50 for CCOP(=O)(OCC)C(NC(=O)COC(=O)[C@]1(C)CC[C@]2(C)CC[C@]3(C)C4=CC=C5C(=CC(=O)C(O)=C5C)[C@]4(C)CC[C@@]3(C)[C@@H]2C1)c1ccc(F)cc1 (some centres not stated) with Hypoxia-inducible factor 1-alpha (Homo sapiens) and state it.
### Response > 30 µM

### Prompt Recall the recorded IC50 for CC1=C(O)C(=O)C=C2C1=CC=C1[C@@]2(C)CC[C@@]2(C)[C@@H]3C[C@](C)(C(=O)OCC(=O)Nc4cccc5ncccc45)CC[C@]3(C)CC[C@]12C with Hypoxia-inducible factor 1-alpha (Homo sapiens) and state it.
### Response 0.36 µM

### Prompt Recall the recorded IC50 for CC1=C(O)C(=O)C=C2C1=CC=C1[C@@]2(C)CC[C@@]2(C)[C@@H]3C[C@](C)(C(=O)OCC(=O)Nc4ccncc4)CC[C@]3(C)CC[C@]12C with Hypoxia-inducible factor 1-alpha (Homo sapiens) and state it.
### Response 32 µM

### Prompt Recall the recorded IC50 for CC1=C(O)C(=O)C=C2C1=CC=C1[C@@]2(C)CC[C@@]2(C)[C@@H]3C[C@](C)(C(=O)OCC(=O)Nc4cccc5cccnc45)CC[C@]3(C)CC[C@]12C with Hypoxia-inducible factor 1-alpha (Homo sapiens) and state it.
### Response 0.35 µM

###

Provide the reported pIC50 of each item.
# Tested on: Hypoxia-inducible factor 1-alpha (Homo sapiens, UniProt Q16665)
# Sequence (Q16665 whole entry): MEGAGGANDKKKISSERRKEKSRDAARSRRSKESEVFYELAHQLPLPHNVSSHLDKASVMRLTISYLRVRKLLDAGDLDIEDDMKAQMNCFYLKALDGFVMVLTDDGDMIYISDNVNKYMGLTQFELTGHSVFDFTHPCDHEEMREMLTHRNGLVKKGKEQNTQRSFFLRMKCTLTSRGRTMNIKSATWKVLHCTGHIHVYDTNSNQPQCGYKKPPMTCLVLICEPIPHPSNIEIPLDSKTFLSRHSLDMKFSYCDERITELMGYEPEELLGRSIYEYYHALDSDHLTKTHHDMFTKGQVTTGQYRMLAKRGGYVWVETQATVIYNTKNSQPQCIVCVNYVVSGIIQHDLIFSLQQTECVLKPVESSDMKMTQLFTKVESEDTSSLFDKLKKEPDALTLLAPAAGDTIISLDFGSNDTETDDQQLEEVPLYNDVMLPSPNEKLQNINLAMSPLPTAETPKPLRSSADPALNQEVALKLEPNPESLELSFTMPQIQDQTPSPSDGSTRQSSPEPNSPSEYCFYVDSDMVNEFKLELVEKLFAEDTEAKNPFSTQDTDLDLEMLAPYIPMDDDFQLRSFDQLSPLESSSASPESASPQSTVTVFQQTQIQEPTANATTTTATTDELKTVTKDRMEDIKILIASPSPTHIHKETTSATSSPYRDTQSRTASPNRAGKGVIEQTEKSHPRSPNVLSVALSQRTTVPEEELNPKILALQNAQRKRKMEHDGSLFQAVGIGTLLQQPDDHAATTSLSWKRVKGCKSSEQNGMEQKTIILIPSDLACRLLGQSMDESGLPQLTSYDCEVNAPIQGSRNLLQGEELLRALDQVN
# Experiment: Inhibition of hypoxia-induced HIF1alpha transcriptional activity in human Hep3B cells co-transfected with luciferase reporter plasmid containing six copies of HREs and pRL-CMV vector assessed as reduction in luciferase activity incubated for 24 hrs under hypoxic condition by HRE-dependent dual luciferase reporter gene assay
Notebook: values listed as pIC50 are -log10 of the concentration (mol/L).

### Prompt I'd like to know its pIC50. The compound in question is CC1=C(O)C(=O)C=C2C1=CC=C1[C@@]2(C)CC[C@@]2(C)[C@@H]3C[C@](C)(C(=O)OCCOc4cc(C)oc(=O)c4)CC[C@]3(C)CC[C@]12C
### Response 6.82

### Prompt I'd like to know its pIC50. The compound in question is CC1=C(O)C(=O)C=C2C1=CC=C1[C@@]2(C)CC[C@@]2(C)[C@@H]3C[C@](C)(C(=O)OCC(=O)NCc4cn(-c5ccc(Cl)c(Cl)c5)nn4)CC[C@]3(C)CC[C@]12C
### Response 6.92

### Prompt I'd like to know its pIC50. The compound in question is CC1=C(O)C(=O)C=C2C1=CC=C1[C@@]2(C)CC[C@@]2(C)[C@@H]3C[C@](C)(C(=O)OCCOc4cnc5ccccc5c4)CC[C@]3(C)CC[C@]12C
### Response 7.30
